system: carrageenan-induced rat paw edema; assay: carrageenan-induced rat paw edema; assay type: in vivo; conditions: Rattus norvegicus, ip, 3.5 h, i.p. 0.15 mmol/kg, 3.5 h post carrageenan, female rats, vs controls given carrageenan only
So I've got a bunch of compounds here, and I need their inhibition in vivo at 150 µmol/kg values.
Response body: numeric value in %, unit text excluded.

Query: Give inhibition in vivo at 150 µmol/kg for COc1cc(COC(=O)CCNC(=O)C(C)c2ccc(CC(C)C)cc2)cc(OC)c1OC (centres unmarked)
Result: 35

Query: Give inhibition in vivo at 150 µmol/kg for COc1cc(COC(=O)C(Cc2ccc(O)cc2)NC(=O)C(C)c2cccc(C(=O)c3ccccc3)c2)cc(OC)c1OC (centres unmarked)
Result: 59

Query: Give inhibition in vivo at 150 µmol/kg for COc1ccc2cc([C@H](C)C(=O)NCCC(=O)OCc3cc(OC)c(OC)c(OC)c3)ccc2c1
Result: 23

Query: Give inhibition in vivo at 150 µmol/kg for COc1cc(COC(=O)C2CCCN2C(=O)Cc2c[nH]c3ccccc23)cc(OC)c1OC (centres unmarked)
Result: 0

Query: Give inhibition in vivo at 150 µmol/kg for CC(C)Cc1ccc(C(C)C(=O)O)cc1 (centres unmarked) [Ibuprofen, reference compound]
Result: 36

Query: Give inhibition in vivo at 150 µmol/kg for COc1cc(COC(=O)C2CCCN2C(=O)C(C)c2cccc(C(=O)c3ccccc3)c2)cc(OC)c1OC (centres unmarked)
Result: 51

Query: Give inhibition in vivo at 150 µmol/kg for COc1cc(COC(=O)C2CCCN2C(=O)C(C)c2ccc(CC(C)C)cc2)cc(OC)c1OC (centres unmarked)
Result: 49

Query: Give inhibition in vivo at 150 µmol/kg for O=C(O)Cc1c[nH]c2ccccc12 [Indole-3-acetic acid, reference compound]
Result: 0

----------
READOUT_NAME: melting point

Query: Give melting point for COc1cc(COC(=O)C(Cc2ccc(O)cc2)NC(=O)C(C)c2ccc(CC(C)C)cc2)cc(OC)c1OC (stereo not drawn)
Result: 86 to 88 °C

Query: Give melting point for COc1cc(COC(=O)C(Cc2ccc(O)cc2)NC(=O)C(C)c2cccc(C(=O)c3ccccc3)c2)cc(OC)c1OC (stereo not drawn)
Result: 68 to 70 °C

Query: Give melting point for COc1ccc2cc(C(C)C(=O)N3CCCC3C(=O)OCc3cc(OC)c(OC)c(OC)c3)ccc2c1 (stereo not drawn)
Result: 50 to 53 °C

Query: Give melting point for COc1cc(COC(=O)CCNC(=O)C(C)c2ccc(CC(C)C)cc2)cc(OC)c1OC (stereo not drawn)
Result: 73 to 75 °C

Query: Give melting point for COc1cc(COC(=O)C2CCCN2C(=O)Cc2c[nH]c3ccccc23)cc(OC)c1OC (stereo not drawn)
Result: 58 to 60 °C

Query: Give melting point for COc1cc(COC(=O)C2CCCN2C(=O)C(C)c2ccc(CC(C)C)cc2)cc(OC)c1OC (stereo not drawn)
Result: 85 to 87 °C

----------
Molecular target: soybean LOX (Glycine max, UniProt P08170)
Construct: purchased Sigma (St. Louis, MO, USA)
Sequence (P08170 1-839): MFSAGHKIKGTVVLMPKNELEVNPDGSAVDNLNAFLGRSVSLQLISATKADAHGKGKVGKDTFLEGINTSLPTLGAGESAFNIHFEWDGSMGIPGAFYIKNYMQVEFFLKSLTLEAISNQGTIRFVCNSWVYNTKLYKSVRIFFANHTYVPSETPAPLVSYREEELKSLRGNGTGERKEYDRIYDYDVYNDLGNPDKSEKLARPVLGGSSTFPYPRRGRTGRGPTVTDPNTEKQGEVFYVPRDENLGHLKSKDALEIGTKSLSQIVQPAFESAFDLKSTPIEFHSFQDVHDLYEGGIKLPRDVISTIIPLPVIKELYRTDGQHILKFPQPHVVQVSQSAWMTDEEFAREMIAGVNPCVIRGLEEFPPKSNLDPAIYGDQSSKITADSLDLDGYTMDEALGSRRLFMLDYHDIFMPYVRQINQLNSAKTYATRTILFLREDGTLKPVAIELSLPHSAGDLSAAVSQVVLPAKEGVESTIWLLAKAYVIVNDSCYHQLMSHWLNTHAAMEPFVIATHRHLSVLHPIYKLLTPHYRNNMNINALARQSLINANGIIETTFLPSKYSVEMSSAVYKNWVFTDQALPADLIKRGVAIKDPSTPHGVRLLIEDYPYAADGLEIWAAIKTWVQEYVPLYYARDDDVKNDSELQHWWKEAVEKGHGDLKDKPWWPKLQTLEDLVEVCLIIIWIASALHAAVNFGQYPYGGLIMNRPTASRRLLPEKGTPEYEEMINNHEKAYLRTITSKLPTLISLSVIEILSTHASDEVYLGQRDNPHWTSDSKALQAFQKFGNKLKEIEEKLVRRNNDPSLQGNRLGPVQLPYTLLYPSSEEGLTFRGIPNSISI
Assay: inhibition of soybean lipoxygenase
Format: biochemical
Conditions: after 7 min of incubation, sodium linoleate 100 μM, pH 9.0, 28 °C
So I've got a bunch of compounds here, and I need their IC50 values.
Response body: numeric value in µM, unit text excluded.

Query: Give IC50 for COc1cc(COC(=O)CCNC(=O)C(C)c2ccc(CC(C)C)cc2)cc(OC)c1OC (stereo not drawn)
Result: 160

Query: Give IC50 for COc1cc(COC(=O)C(Cc2ccc(O)cc2)NC(=O)C(C)c2cccc(C(=O)c3ccccc3)c2)cc(OC)c1OC (stereo not drawn)
Result: 85

Query: Give IC50 for COc1ccc2cc([C@H](C)C(=O)NCCC(=O)OCc3cc(OC)c(OC)c(OC)c3)ccc2c1
Result: 41
